Record form. Attribute: growth. Fill in for each entry.
System: U251 CNS
Protocol description: NCI-60 one-dose screen, 48 h (100 = growth as untreated, 0 = no growth, -100 = all killed)
Condition label: 10 µM unless noted
The panel holds about 83,000 compounds, 20% with a hit somewhere; the sample as a whole holds those more often.
One number for each entry, in %.

Sample records with growth:
O=C(/C=C/C12c3ccccc3C(c3ccccc31)C1C(=O)N(c3ccccc3)C(=O)C12)c1ccc(Cl)cc1 (centres undefined) = 19.8
COc1ccc(CN2C(=O)/C(=C\c3cc(OC)c(OC)c(OC)c3)c3ccccc32)cc1 = -73.6
O=C(Oc1ccc[nH]c1=O)c1cc([N+](=O)[O-])cc([N+](=O)[O-])c1 = 109
COc1ccc(O)c(-c2cc(-c3ccccc3)c(C#N)c(=O)[nH]2)c1 = 73.4
CCNCCNc1cc(-c2ccc(C#N)cc2)c(C#N)c2nc3ccccc3n12 = -23.4
COc1cc(NC(=O)c2cc(O)c(CC=C(C)C)c(O)c2)cc2c1O[C@]1(C)CC[C@@H](O)C(C)(C)[C@H]1C2 = 13.4
Clc1ccc(/C=N\N=c2\scc(-c3ccc(Cl)cc3)n2/N=C/c2ccc(Cl)cc2)cc1 = 97.6
Cc1ccc(Nc2ccc(Nc3ccc(C)cc3S(=O)(=O)O)c3c2C(=O)c2ccccc2C3=O)c(S(=O)(=O)O)c1 = 107
CC(=O)c1sc(-c2ccccc2)cc1N = 82.7
CCCCCCNc1cc(C)nc2ccc(OC)cc12 = 55.1

Batch request: growth for each of the following compounds.
1. O=C(/C=C/C12c3ccccc3C(c3ccccc31)C1C(=O)NC(=O)C12)c1ccc(Cl)cc1 (centres undefined)
2. Cc1ccc(NC(=O)C(Cl)Cl)cc1
3. COc1cc(/C=C/C(=O)c2cccc(-n3cc(-c4ccc(Cl)cc4)[nH]c3=O)c2)cc(OC)c1OC
4. C=CC(=O)N[C@@H](Cc1ccc(-c2cc(Cl)cc(Cl)c2)cc1)[C@@H](O)[C@H](O)C(=O)O
5. O=C(CCl)N1c2cccc3cccc(c23)N(C(=O)CCl)C1c1cn(-c2ccccc2)nc1-c1cccc([N+](=O)[O-])c1
6. O=S(=O)(NCCNc1cc(-c2c(-c3cccc(O)c3)nc3sccn23)ccn1)c1ccc(Br)cc1
7. CCCCNCC(=O)Nc1ccc(C(=O)OCC)cc1
8. C[C@@H]1CC[C@@H]2[C@@H]1[C@H](OC(=O)c1ccc3ccccc3c1)[C@]1(C3CCCCC3)C[C@@H](OC(=O)CO)[C@@]2(C)O1

### Response
-10.9
94.7
30.9
92.1
85
64.6
101
48.9

### Prompt For the compound COc1ccc(C2CC(c3ccc4ccccc4c3)=NN2c2nc(O)c(C3=c4cc(Cl)ccc4=NC3=O)s2)cc1 (centres undefined) , give its measured growth value.
### Response -94.6

###

System: T-47D breast
Protocol description: NCI-60 one-dose screen, 48 h (100 = growth as untreated, 0 = no growth, -100 = all killed)
Condition label: 10 µM unless noted
This is part of a sample that, as a whole, favours compounds with a hit. Of some 83,000 tested, about 20% had one in any assay.
API: label(entry) gives Y if the entry's growth is strictly smaller than 70%; on equality or larger values it gives N.

Some solved entries appear below for comparison.
O[C@H]1CO[C@H]2[C@@H]1OC[C@@H]2Oc1ccc(Nc2nc(Nc3ccc(F)c(Cl)c3)ncc2F)cc1Cl = N
COc1cc2c(cc1OC)-c1ccc3cc4c(cc3c1N(CCCN1CCCCC1)C2)OCO4 = Y
N#Cc1cnn2c(-c3ccc(Cl)cc3)nc(NC3CC3)nc12 = N
Cl.[Pt].[c-]1ccccc1-c1ccccn1.c1ccc(P(c2ccccc2)C([PH+](c2ccccc2)c2ccccc2)[PH+](c2ccccc2)c2ccccc2)cc1 = Y
C=CCOc1cccc(/C=C2\SC(=Nc3ccc(O)cc3)NC2=O)c1 = Y

### Prompt Please state whether growth is below 70% for [2H]c1nc(Nc2ncc(F)c(-c3cc(F)c4nc(C)n(C(C)C)c4c3)n2)c([2H])c([2H])c1CN1CCN(C([2H])([2H])C([2H])([2H])[2H])CC1
### Response Y

### Prompt Please state whether growth is below 70% for COc1cc(CNC(=O)/C=C/C=C/c2ccc3c(c2)OCO3)ccc1OCc1cn(-c2ccc(Cl)c(Cl)c2)nn1
### Response Y

All figures here come from PubChem BioAssay (NCI).
